# System: UACC-62
# measurement notes: NCI tumour cell line growth inhibition, 48 h
The source made the active and inactive calls. Cut-off read from the data, not from the text of the source: active = GI50 up to about 1.1 µM and inactive = higher.
endpoint name: GI50

>>> observed("O=C1N[C@@H]2c3c(csc3Br)C(=O)[C@@H]2O1")
"34.1 µM (inactive)"
>>> observed("COCN1C(=O)[C@@H]2CCCN2C(=O)c2cc(OC)c(Cc3ccccc3)cc21")
"> 100 µM (inactive)"
>>> observed("O=C(CSc1c2ccccc2nc2ccccc12)Nc1ccccc1-c1ccccc1NC(=O)CSc1c2ccccc2nc2ccccc12")
"18 µM (inactive)"
>>> observed("N=C(N)NS(=O)(=O)c1ccc(Nc2c3ccccc3nc3c(C(=O)N4CCN(CCO)CC4)cccc23)cc1")
"> 100 µM (inactive)"
>>> observed("N#C/N=C(/N)NCO")
"> 100 µM (inactive)"

Item C=CCC1(C(=O)OC)CCC/C(=N\O)C1 (stereo unspecified) has what recorded GI50? > 10 µM (inactive)

Item CN(C)c1ccc(C=c2c3ccccc3n3c2c2c([n+]3C)CCCC2)cc1 has what recorded GI50? 0.42 µM (active)

Item Cc1ccc(S(=O)(=O)NC(=O)Nc2ccc(C(=O)O)cc2)cc1 has what recorded GI50? > 100 µM (inactive)

Item O=[N+]([O-])c1cc(CCl)ccc1CCl has what recorded GI50? 4.41 µM (inactive)

Item OC1C2C=CCC1CCC2 (stereo unspecified) has what recorded GI50? > 100 µM (inactive)

Item CCOC(=O)c1cnc(-n2[nH]c(C)c(CCO)c2=O)[nH]c1=O has what recorded GI50? > 100 µM (inactive)

* * *

# Tested on: HCC 2998
# measurement notes: NCI tumour cell line growth inhibition, 48 h
The source made the active and inactive calls. Rule as the data show it: active = GI50 up to about 1.1 µM and inactive = higher.
Permitted responses: yes (1) (active), no (0) (inactive)

Below, 5 molecules whose answers are already recorded.
>>> assigned_category("CCN(CC)CCOCCn1c2c(c3ccccc31)CCCC2")
"no (0)"
>>> assigned_category("Cc1cc(S(=O)(=O)n2ccnc2Oc2cccc(Cl)c2)c(SSc2cc(Cl)c(C)cc2S(=O)(=O)n2ccnc2Oc2cccc(Cl)c2)cc1Cl")
"no (0)"
>>> assigned_category("CO/N=C(\\C)CCC#Cc1ccccc1C(=O)OC")
"no (0)"
>>> assigned_category("COc1c(C)c2c(c(=O)c3c(C)cccc3n2C)c2c1c(=O)c1c(C)cccc1n2C")
"no (0)"
>>> assigned_category("C#C[C@]1(O)CC[C@H]2[C@@H]3CCC4=C/C(=N/NC(=O)c5cccc6cc7ccccc7nc56)CC[C@@H]4[C@H]3CC[C@@]21CC")
"no (0)"

What is the recorded call for this molecule in the test? COc1ccccc1NC(=O)C(C#N)=C(SC)SC no (0)

What is the recorded call for this molecule in the test? N#Cc1nc(CCCN2C(=O)c3ccccc3C2=O)oc1N no (0)

What is the recorded call for this molecule in the test? CCCN(CCC)C(=S)N/N=C/c1ccccn1 yes (1)

What is the recorded call for this molecule in the test? O=C(O)/C=C/c1ccncc1 no (0)

* * *

# System: NCI-H460
# measurement notes: NCI tumour cell line growth inhibition, 48 h
Calls of active or inactive are those of the source. Rule as the data show it: active = GI50 up to about 1.1 µM and inactive = higher.
endpoint name: GI50

In the examples that follow, each entry is paired with its recorded GI50.
>>> observed("CCOC(=O)C(NC(=O)CC)(Nc1ccc(S(=O)(=O)Nc2onc(C)c2C)cc1)C(F)(F)F (stereo not given)")
"> 100 µM (inactive)"
>>> observed("CCC12CCCNC1c1c(n(C)c3ccccc13)C(C(=O)OC)C2 (stereo not given)")
"76.9 µM (inactive)"
>>> observed("CCCN(CCC)C(=S)N/N=C/c1ccccn1")
"0.0103 µM (active)"
>>> observed("COc1ccc(-c2nc(SCC(=O)N/N=C/c3ccc(O)c(OC)c3)[nH]c2-c2ccc(OC)cc2)cc1")
"23.2 µM (inactive)"
>>> observed("Clc1ccc(-c2nc(-c3ccc(Cl)cc3)[s+]s2)cc1")
"37.6 µM (inactive)"

// next item, GI50 requested
Item CC(C)C[C@H](NC(=O)[C@H](CCc1ccccc1)NC(=O)c1ccc2ccccc2n1)B(O)O has what recorded GI50? 0.394 µM (active)
